Listed below: inhibition values for each entry.
study.target: Glucose transporter (Leishmania mexicana)
assay.method.text: ST_JUDE_LEISH: Cytotoxicity at 2uM final concentration against transgenic Leishmania Mexicana promastigotes LmGT2 that are glucose transport deficient and complemented with the L. Mexicana glucose transporter 2. Activity is measured by DNA content using SYBR green in vitro
Format: functional
Write the answer as a number in %, unit excluded.

Some molecules with known inhibition results, for comparison:
CC1(C)NC(=N)N=C(NOCC=Cc2ccccc2)N1
3.12
N=C(N)NCCN(Cc1ccccc1)c1ccc(Cl)cc1
1.25
Cc1ccc(Nc2nccc(NCC(O)c3ccc(C(F)(F)F)cc3)n2)cc1 (configuration not stated)
3.67
NCc1ccc(-c2ccccc2CNC2CCN(Cc3ccccc3)CC2)cc1
1.44
c1cc(CN2CCN(CCN3CCOCC3)CC2)cc(-c2csc(-c3nc4ccccc4[nH]3)c2)c1
4.63

Q. Entry Cc1cccc(CN2CCC(C(=O)Nc3ccc(-c4nc5ccccc5[nH]4)cc3)CC2)n1 has what inhibition?
A. 3.71

Q. Requested read-out: inhibition. Entry: CCCC(C)Nc1nc(C)cc(N[C@@H](CC(C)C)C(=O)Nc2ccc(OC)cc2)n1 (some centres not stated)
A. 1.36

Q. Report inhibition for Cc1nc(C)c(-c2ccc(Cl)cc2Cl)c(O)c1Br please.
A. 3.83

Q. Quick one: inhibition of O=C(Cc1cccc(Cl)c1)Nc1cccc(-c2c[nH]c3nc(Nc4cccc(OCc5ccccc5)c4)ncc23)c1 ?
A. 5.74

Q. So what's the measured inhibition for this one? Cc1ccc(NC(=O)c2ccc(-c3cc4cc(Cl)c(Cl)cc4[nH]3)cc2)cc1OCCN1CCCC1
A. 0.15

Q. Using the record for Cc1ccc(Nc2nc(C)cc(NC3CCN(C)CC3)n2)cc1 , report its inhibition.
A. 5.43

Q. Query: inhibition; subject: O=C(Nc1ccc(OC2CCN(Cc3ccccc3)CC2)c(Cl)c1)c1ccco1
A. 8.63

Q. Could you tell me which inhibition is on file for O=C(NCCCCN1CCC(c2nc3ccccc3s2)CC1)c1cc2ccccc2[nH]1 ?
A. -1.01

Q. Endpoint output: inhibition of CC(=O)N(C)c1ccc(C(=O)Nc2cccc(-c3cccc(-c4nc5cc(C(F)(F)F)ccc5[nH]4)c3)c2)cc1 . Value?
A. 5.77

Q. Need inhibition of COC(=O)c1noc(C)c1I , thanks.
A. 0.59

###

Listed compounds paired with reported inhibition
study.target: Solute carrier family 2, facilitated glucose transporter member 1 (Homo sapiens) (UniProt P11166)
Sequence (P11166 whole entry): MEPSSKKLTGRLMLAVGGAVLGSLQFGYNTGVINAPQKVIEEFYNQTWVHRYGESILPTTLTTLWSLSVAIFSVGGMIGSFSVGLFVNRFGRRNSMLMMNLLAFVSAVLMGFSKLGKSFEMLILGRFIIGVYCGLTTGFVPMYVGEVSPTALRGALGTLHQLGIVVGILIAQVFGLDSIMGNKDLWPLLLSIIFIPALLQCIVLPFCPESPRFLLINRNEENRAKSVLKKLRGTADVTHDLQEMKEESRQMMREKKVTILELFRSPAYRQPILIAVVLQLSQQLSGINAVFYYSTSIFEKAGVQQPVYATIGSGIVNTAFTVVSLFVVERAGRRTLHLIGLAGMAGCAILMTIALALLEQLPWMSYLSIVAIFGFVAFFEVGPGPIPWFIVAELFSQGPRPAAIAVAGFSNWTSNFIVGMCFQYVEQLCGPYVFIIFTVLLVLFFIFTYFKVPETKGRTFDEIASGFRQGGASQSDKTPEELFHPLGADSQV
assay.method.text: ST_JUDE_LEISH: Cytotoxicity at 2uM final concentration against transgenic Leishmania Mexicana promastigotes LmGLUT1 that are glucose transport deficient and complemented with the human glucose transporter GLUT1. Activity is measured by DNA content using SYBR green in vitro
Format: functional
A number alone suffices; assume %.

# count of solved cases: 8
COc1ccccc1CCNC(=O)c1cnc(N2CCN(c3ccncc3)CC2)c(Cl)c1
74.5
OC(CNCc1cccc(Oc2ccc(Cl)cc2)c1)c1cccc(C(F)(F)F)c1 (centres undefined)
1.7
Cc1ccc(O)c(-c2cc(C(=O)Nc3ccc(S(=O)(=O)N4CCCCC4)cc3)[nH]n2)c1
3.32
O=C(CNCC1CCCCC1)Nc1cc(C(F)(F)F)ccc1Cl
1.93
COc1ccc(C(C(=O)NC2CCN(C[C@H](O)c3ccnc4ccc(OC)cc34)CC2)N2CCN(c3ccc([N+](=O)[O-])cc3)CC2)cc1 (some centres undefined)
2.67
CCOc1ccc(NC(=O)c2cn3nc(-c4ccc(OCC)cc4)cc3nc2C2CCNCC2)cc1
1.5
Cc1[nH]c(C)c(-c2ccc(-c3cccc(Cl)c3)nc2)c(=O)c1Br
0
COc1cc2nc(NCC3CCCCC3)nc(NCc3ccccc3)c2cc1OC
3.26

Now, please, on to the next compound.
Q. What measured inhibition goes with CC(=O)N/N=C/[C@H](CCc1ccccc1)NC(=O)[C@H](CC(C)C)NC(=O)c1cccc(OCCN2CCOCC2)c1 ?
A. 6.39

###

study.target: Glucose transporter (Leishmania mexicana) (UniProt O61059)
assay.method.text: ST_JUDE_LEISH: Cytotoxicity at 2uM final concentration against transgenic Leishmania Mexicana promastigotes LmGT2 that are glucose transport deficient and complemented with the L. Mexicana glucose transporter 2. Activity is measured by DNA content using SYBR green in vitro
Type: functional
inhibition values, listed per item
Answer with the figure and its unit, nothing else.

Solved cases below.
CN1CCCC1CCCOC(=O)c1ccc(N)cc1 (centres undefined)
2.42%
COc1ccc2nc(C)cc(Nc3ccc(Oc4ccc(Cl)cc4)c(Cl)c3)c2c1
2.63%
CC1CCCCC1N(C)C1CCN(CCCNC(=O)C=Cc2ccccc2Cl)CC1 (centres undefined)
-0.58%
CN(C)CCN(C)Cc1ccc(-c2ccc(NC(=O)c3ccc(Cl)cc3)cc2)cc1
7.17%
CC(C)CCN1CCC(Oc2ccc(NC(=O)c3ccsc3)cc2Cl)CC1
1.45%

Q. # get_value(readout='inhibition', item= Cc1ccc(NC(=O)c2cc(Br)cc(N3CCC(N(C)C)CC3)c2)cc1F )
A. 6.75%

Q. // inhibition lookup, key: CCCCCn1c(Sc2ccc(C#N)c([N+](=O)[O-])c2)nnc1-c1ccc(OC)cc1
A. 4.8%

Q. Consider the compound O=C(c1ccc(O)c(-c2cc(Cl)cc(Cl)c2)c1)N(CCO)CCO and give its measured inhibition.
A. 3.14%

Q. So what does the record say about inhibition for Nc1c2ccccc2nc2ccc(-c3ccccc3)cc12 ?
A. 13.1%

Q. May I ask what inhibition has been recorded for COc1ccc(-n2cc(C(=O)c3cc(Br)ccc3O)cc(C#N)c2=O)cc1Cl ?
A. 0.95%

Q. So what does the record say about inhibition for CCOC(=O)c1cn(CC)c2cc(N3CCCCC3)c(F)cc2c1=O ?
A. 4.37%

Q. // returns reported inhibition for input Fc1cccc(COc2ccc(Nc3ncnc4sc(C#C[C@H]5CC[C@H](CN6CCOCC6)N5)cc34)cc2Cl)c1
A. -0.26%

Q. What value of inhibition has been reported for the following compound? CCNc1cc(C(=O)N[C@@H](Cc2ccccc2)[C@H](O)CNCCc2cccc(C(F)(F)F)c2)cc(N2CCCC2=O)c1
A. -0.87%

Q. Request the reported inhibition associated with CN1CCN(CCCN(Cc2cccc(-c3ccc(CNCCc4ccccc4)cc3)c2)C(=O)c2cccs2)CC1
A. 3.91%

Q. For the compound Cc1ccc(NC(=O)c2ccc(CN3CCCN(Cc4cccc(C#N)c4)CC3)cc2)cc1F , what inhibition is on record?
A. 2.02%

Q. Could you tell me which inhibition is on file for COc1ccc2[nH]ccc(=NN=Cc3ccncc3)c2c1 ?
A. 3.39%

Q. Which inhibition value belongs to Cc1cc(=NN=Cc2ccccc2F)c2cc(F)ccc2[nH]1 ?
A. 0.82%

Q. Which measured inhibition value corresponds to COc1cccc(-c2cc(C(F)(F)F)n3ncc(C(=O)Nc4cc(C)ccc4O)c3n2)c1 ?
A. 3.36%

Q. Need inhibition, item O=C(Nc1ccc(OC2CCN(Cc3ccc(F)cc3)C2)c(Cl)c1)c1ccco1 (centres undefined)
A. 3.01%

Q. What inhibition value was documented for this compound, COc1ccc(C(=O)CCC(=O)N(CCSC(C)(C)C)Cc2ccc(-c3ccc(CNCCc4ccc(S(C)(=O)=O)cc4)cn3)cc2)cc1F ?
A. 7.07%

Q. # inhibition lookup, item COc1ccc(F)cc1-c1ccccc1CNC(=O)c1cnn(-c2ccc([N+](=O)[O-])cc2)c1C(F)(F)F
A. 4.07%

###

Quick reference: inhibition of the listed items.
study.target: Hexose transporter 1 (Plasmodium falciparum)
assay.method.text: ST_JUDE_LEISH: Cytotoxicity at 2uM final concentration against transgenic Leishmania Mexicana promastigotes LmPfHT that are glucose transport deficient and complemented with the Plasmodium falciparum hexose transporter. Activity is measured by DNA content using SYBR green in vitro
Format: functional
Numeric only. Scale: %

N=c1ccn(CC(=NO)c2ccc(Cl)c(Cl)c2)cc1
2.8
CCn1ccc2c(N3CCCCS3(=O)=O)cc(C(=O)N[C@@H](Cc3ccccc3)[C@H](O)CNC(C)(C)c3cccc(C(F)(F)F)c3)cc21
-1.1
CC(C)(C)c1cc(C(=O)Nc2ccc(C(=N)N)cc2)c(O)c(C(C)(C)C)c1
3.05
CC(C)(C)NS(=O)(=O)c1cc(C(=O)N2CCC(CCN3CCC(C(=O)c4ccc(F)cc4)CC3)(c3cccc(F)c3)CC2)c(Cl)cc1F
9.1
Nc1nccc2ccc(-c3cccc(OCc4ccccc4)c3)cc12
2.5
CCc1cn2c3c(cc(C(=O)N[C@@H](Cc4ccccc4)[C@H](O)CN[C@@H](C)CC)cc13)N(C)S(=O)(=O)CC2
2.23
CCCCCCCCS(=O)(=O)NCCCC1CCN(CCCCCNC(=O)C=Cc2ccc(Cl)c(Cl)c2)CC1
-0.32
CCC(C)CN1C(=O)C(c2ccccc2)(c2ccccc2)N=C1N (centres undefined)
2.72
Cc1ccc(C)c(C2CCN(CCCCNC(=O)c3ccc(NC(=O)c4ccc(Cl)cc4)cc3)CC2)c1
0.21
CCCn1cc2c(ccc3nc(N)nc(N)c32)n1
0.8

Q. Would you mind telling me what inhibition value was observed for c1ccc(-c2n[nH]cc2Nc2ccnc3ccccc23)nc1 ?
A. 3.76
